Data provenance: PubChem BioAssay AID2060602

Tested on: 648629-189-R-J1-PDC complex spheroids viability
Test: Anticancer human tumor 648629-189-R-J1-PDC patient-derived bladder carcinoma cell line growth inhibition [CLK]
Details: second compound 3.16 µM; first compound 0.0316 µM; stronger effect = lower value
From the text: A high-throughput screen of multi-cell type tumor spheroids was designed to identify active combinations of […] and targeted small molecules. Complex spheroids include a stromal component modeled by human endothelial cells (HUVEC) and fibroblasts modeled by human mesenchymal stem cells (MSCs). […] Compounds. […] If the clinical Cmax for an agent had not been determined, the highest concentration tested was 10 microM. […]
Task for the reader: assign each of the following compounds its reported viability, T/C.

Worked examples, 3 compounds total:
compound	target_entity	viability, T/C
CC(=O)O[C@H]1C(=O)[C@@]2(C)[C@H]([C@H](OC(=O)c3ccccc3)[C@]3(O)C[C@H](OC(=O)[C@H](O)[C@@H](NC(=O)c4ccccc4)c4ccccc4)C(C)=C1C3(C)C)[C@]1(OC(C)=O)CO[C@@H]1C[C@@H]2O + CN1CCN(c2cc(C(=O)Nc3cc4cc(-c5cnn(C)c5)ccc4cn3)ccn2)CC1	648629-189-R-J1-PDC complex spheroids viability	0.07%
CCN1CCN(Cc2ccc(Nc3ncc(F)c(-c4cc(F)c5nc(C)n(C(C)C)c5c4)n3)nc2)CC1 + CN1CCN(c2cc(C(=O)Nc3cc4cc(-c5cnn(C)c5)ccc4cn3)ccn2)CC1	648629-189-R-J1-PDC complex spheroids viability	0.49%
CC(CO)NC(=O)c1cc(-c2ccc(Cl)cc2)nn(-c2cnn(C)c2)c1=O (centres undefined) + CN1CCN(c2cc(C(=O)Nc3cc4cc(-c5cnn(C)c5)ccc4cn3)ccn2)CC1	648629-189-R-J1-PDC complex spheroids viability	0.14%

Would you mind telling me what viability, T/C value was observed for CC1(C)CCC(CN2CCN(c3ccc(C(=O)NS(=O)(=O)c4ccc(NCC5CCOCC5)c([N+](=O)[O-])c4)c(Oc4cnc5[nH]ccc5c4)c3)CC2)=C(c2ccc(Cl)cc2)C1 + CN1CCN(c2cc(C(=O)Nc3cc4cc(-c5cnn(C)c5)ccc4cn3)ccn2)CC1 ?
0.1%

###

system: 648629-189-R-J1-PDC complex spheroids viability; assay: Anticancer human tumor 648629-189-R-J1-PDC cell line growth inhibition [CLK]; settings: curve of first compound; second compound 0.316 µM
Task for the reader: assign each of the following molecules its reported IC50.

molecule	target_entity	IC50
Cn1ncnc1[C@H]1c2n[nH]c(=O)c3cc(F)cc(c23)N[C@@H]1c1ccc(F)cc1 + CN1CCN(c2cc(C(=O)Nc3cc4cc(-c5cnn(C)c5)ccc4cn3)ccn2)CC1	648629-189-R-J1-PDC complex spheroids viability	< 0.000316 µM
C=C(F)C(=O)N1CCN(c2nc(OCC3CCCN3C)nc3c2CCN(c2cccc4cccc(Cl)c24)C3)CC1CC#N (stereo not drawn) + CN1CCN(c2cc(C(=O)Nc3cc4cc(-c5cnn(C)c5)ccc4cn3)ccn2)CC1	648629-189-R-J1-PDC complex spheroids viability	< 0.0316 µM

Would you mind telling me what IC50 value was observed for Nc1ccccc1NC(=O)c1ccc(CNC(=O)OCc2cccnc2)cc1 + CN1CCN(c2cc(C(=O)Nc3cc4cc(-c5cnn(C)c5)ccc4cn3)ccn2)CC1 ?
< 0.0316 µM

###

tested on: 648629-189-R-J1-PDC complex spheroids viability; experiment: Anticancer human tumor 648629-189-R-J1-PDC cell line growth inhibition [CLK]; conditions: second compound 1 µM; first compound 0.00316 µM; active = viability on the fitted dose curve at most 10% of control; inactive = the rest
Assign a class; possible classes are active, inactive

compound	label_class
CCc1c2c(nc3ccc(O)cc13)-c1cc3c(c(=O)n1C2)COC(=O)[C@]3(O)CC + CN1CCN(c2cc(C(=O)Nc3cc4cc(-c5cnn(C)c5)ccc4cn3)ccn2)CC1	active
Cn1ncnc1[C@H]1c2n[nH]c(=O)c3cc(F)cc(c23)N[C@@H]1c1ccc(F)cc1 + CN1CCN(c2cc(C(=O)Nc3cc4cc(-c5cnn(C)c5)ccc4cn3)ccn2)CC1	active
COc1c(OCCCN2CCOCC2)ccc2c3n(c(=NC(=O)c4cnc(N)nc4)nc12)CCN3 + CNC(=O)c1ccc(Nc2nc(OC3CCCC3)c3c(-c4ccc5nc(C)oc5c4)c[nH]c3n2)c(OC)c1	inactive

Tell me the assay call for CCN1CCN(Cc2ccc(Nc3ncc(F)c(-c4cc(F)c5nc(C)n(C(C)C)c5c4)n3)nc2)CC1 + CNC(=O)c1ccc(Nc2nc(OC3CCCC3)c3c(-c4ccc5nc(C)oc5c4)c[nH]c3n2)c(OC)c1 please.
inactive
